TEST_SYSTEM: SMYD2 (Homo sapiens, UniProt Q9NRG4)
Construct: Full length SMYD2 (NP 064582.2) was cloned; His6 (N, cleaved yes); FLAG (N); made in house; host or cells: Sf9 insect cells
Sequence (Q9NRG4 whole entry): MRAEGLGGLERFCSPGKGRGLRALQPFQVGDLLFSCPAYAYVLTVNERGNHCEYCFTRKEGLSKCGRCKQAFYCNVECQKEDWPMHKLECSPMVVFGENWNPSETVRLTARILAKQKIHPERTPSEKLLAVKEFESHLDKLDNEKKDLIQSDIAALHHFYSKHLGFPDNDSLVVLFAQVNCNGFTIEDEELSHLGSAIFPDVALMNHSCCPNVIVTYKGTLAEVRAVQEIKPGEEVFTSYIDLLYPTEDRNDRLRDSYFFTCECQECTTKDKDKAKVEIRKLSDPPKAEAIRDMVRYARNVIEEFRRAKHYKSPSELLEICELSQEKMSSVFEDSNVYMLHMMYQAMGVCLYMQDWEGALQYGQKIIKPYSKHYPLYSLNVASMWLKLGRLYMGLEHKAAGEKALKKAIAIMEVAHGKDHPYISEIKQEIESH
MEASUREMENT_DESCRIPTION: SMYD2 Biochemical Assay (3H-SAM, biotinylated peptide substrate, Flashplate)
ASSAY_SETUP: IC50 values are an average of n = 1 to n = 50; read-out: SMYD2 Biochem IC50 (μM)*

MOLECULE	TEST_SYSTEM	UNITS_TEXT	RELATIONAL_OPERATOR	IC50
CC(C)c1cc(C(=O)N[C@H]2C[C@@H](CNC(=O)c3ccccc3)N(C3CC3)C2)no1 (racemic)	SMYD2 (Homo sapiens, UniProt Q9NRG4)	µM	>	50
COC(=O)CN1C[C@@H](C)[C@H](NC(=O)c2cc(C3CC3)on2)C1 (racemic)	SMYD2 (Homo sapiens, UniProt Q9NRG4)	µM	>	50
C[C@H]1CN(CCC2CCN(C(=O)OC(C)(C)C)CC2)C[C@H]1NC(=O)c1cc(C2CC2)on1 (racemic)	SMYD2 (Homo sapiens, UniProt Q9NRG4)	µM	=	6.92
C[C@H]1CN(CC(N)=O)C[C@H]1NC(=O)c1cc(C2CC2)on1 (racemic)	SMYD2 (Homo sapiens, UniProt Q9NRG4)	µM	>	50
COc1cccc(CN2C[C@H](C)[C@H](NC(=O)c3cc(C4CC4)on3)C2)c1 (racemic)	SMYD2 (Homo sapiens, UniProt Q9NRG4)	µM	=	4.96
C[C@H]1CN(Cc2c[nH]c3ccccc23)C[C@H]1NC(=O)c1cc(C2CC2)on1 (racemic)	SMYD2 (Homo sapiens, UniProt Q9NRG4)	µM	=	6.86
CC(C)c1cc(C(=O)N[C@@H]2CN(C(C)C)C[C@H]2C)no1 (racemic)	SMYD2 (Homo sapiens, UniProt Q9NRG4)	µM	>	50
C[C@H]1CN(Cc2ccc3ncccc3c2)C[C@H]1NC(=O)c1cc(C2CC2)on1 (racemic)	SMYD2 (Homo sapiens, UniProt Q9NRG4)	µM	=	24.2
C[C@@H]1CN(CC2CCN(C)CC2)C[C@H]1NC(=O)c1cc(C2CC2)on1 (racemic)	SMYD2 (Homo sapiens, UniProt Q9NRG4)	µM	>	50
CCOC(=O)C1CC1CN1C[C@H](C)[C@H](NC(=O)c2cc(C3CC3)on2)C1 (stereo in doubt)	SMYD2 (Homo sapiens, UniProt Q9NRG4)	µM	=	5.28
C[C@H]1CN(Cc2ccnc3ccccc23)C[C@H]1NC(=O)c1cc(C2CC2)on1 (racemic)	SMYD2 (Homo sapiens, UniProt Q9NRG4)	µM	>	50
C[C@H]1CN(Cc2cccnc2)C[C@H]1NC(=O)c1cc(C2CC2)on1 (racemic)	SMYD2 (Homo sapiens, UniProt Q9NRG4)	µM	=	10.6
CC(C)N1C[C@H](C)[C@H](NC(=O)c2cc(C3(C)CC3)on2)C1 (racemic)	SMYD2 (Homo sapiens, UniProt Q9NRG4)	µM	=	22.3
CCc1nc(C)c(CN2C[C@@H](C)[C@H](NC(=O)c3cc(C4CC4)on3)C2)[nH]1 (racemic)	SMYD2 (Homo sapiens, UniProt Q9NRG4)	µM	>	50
C[C@@H]1CN(Cc2cccnc2)C[C@H]1NC(=O)c1cc(C2CC2)on1 (racemic)	SMYD2 (Homo sapiens, UniProt Q9NRG4)	µM	>	50

----------
TEST_SYSTEM: SMYD2 (Homo sapiens)
Construct: Full length SMYD2 (NP 064582.2) was cloned; His6 (N, cleaved yes); FLAG (N); made in house; host or cells: Sf9 insect cells
MEASUREMENT_DESCRIPTION: SMYD2 Biochemical Assay (3H-SAM, biotinylated peptide substrate, Flashplate)
ASSAY_SETUP: IC50 values are an average of n = 1 to n = 50; read-out: SMYD2 Biochem IC50 (μM)*
QUANTITY_NAME: IC50

COMPOUND	VAL
C[C@@H]1CN(c2ccc(Cl)cc2)C[C@H]1NC(=O)c1cc(C2CC2)on1 (racemic) [compound 298]	> 50 µM
CO[C@H]1CN(C)C[C@@H]1NC(=O)c1cc(C2CC2)on1 (racemic) [compound 122]	> 50 µM
C[C@H]1CN(Cc2cccc3[nH]ncc23)C[C@H]1NC(=O)c1cc(C2CC2)on1 (racemic) [compound 265]	4.89 µM
CC(C)N1C[C@H](C)[C@H](NC(=O)c2cc(C3CN(C)C3)on2)C1 (racemic) [compound 343]	> 50 µM
C[C@H]1CN(Cc2cc3ccccc3s2)C[C@H]1NC(=O)c1cc(C2CC2)on1 (racemic) [compound 195]	33.4 µM
CC(=O)Nc1ccc(N2C[C@H](C)[C@H](NC(=O)c3cc(C4CC4)on3)C2)cc1 (racemic) [compound 278]	> 50 µM
C[C@H]1CN(Cc2ccc(Cl)cc2)C[C@H]1NC(=O)c1cc(C2CC2)on1 (racemic) [compound 210]	4.32 µM

----------
# reported IC50; entries follow
TEST_SYSTEM: UniProt Q9H7B4
Sequence (Q9H7B4 1-428): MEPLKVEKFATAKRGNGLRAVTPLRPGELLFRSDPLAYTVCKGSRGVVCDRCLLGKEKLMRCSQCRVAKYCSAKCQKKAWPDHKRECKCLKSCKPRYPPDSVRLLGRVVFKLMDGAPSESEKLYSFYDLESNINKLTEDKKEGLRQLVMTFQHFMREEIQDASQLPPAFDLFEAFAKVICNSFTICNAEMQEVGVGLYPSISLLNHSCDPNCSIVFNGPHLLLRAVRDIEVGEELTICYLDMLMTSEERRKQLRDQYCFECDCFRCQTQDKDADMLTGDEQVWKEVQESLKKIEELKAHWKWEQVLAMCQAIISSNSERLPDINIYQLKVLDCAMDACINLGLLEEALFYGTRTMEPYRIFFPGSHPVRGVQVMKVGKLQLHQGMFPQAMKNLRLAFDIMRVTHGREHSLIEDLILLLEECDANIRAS

COMPOUND	TEST_SYSTEM	RELATIONAL_OPERATOR	IC50 / µM
CN1CCC(NC(=O)c2cc(C3CC3)on2)C1c1ccc(F)c(F)c1 (centres unmarked)	UniProt Q9H7B4	=	67.2
O=C(N[C@H]1CCNC1)c1cc(C2CC2)on1	UniProt Q9H7B4	=	80.3
CN1C(=O)CC(NC(=O)c2cc(C3CC3)on2)C1c1ccc(F)cc1 (centres unmarked)	UniProt Q9H7B4	=	58.5
N[C@H]1CC[C@H](C(=O)N2CC[C@@H](NC(=O)c3cc(C4CC4)on3)C2)CC1	UniProt Q9H7B4	>	10
NCCCS(=O)(=O)N1CC[C@@H](NC(=O)c2cc(C3CC3)on2)C1	UniProt Q9H7B4	=	5.8

----------
TEST_SYSTEM: SMYD2 (Homo sapiens)
Construct: Full length SMYD2 (NP 064582.2) was cloned; His6 (N, cleaved yes); FLAG (N); made in house; host or cells: Sf9 insect cells
MEASUREMENT_DESCRIPTION: SMYD2 Biochemical Assay (3H-SAM, biotinylated peptide substrate, Flashplate)
ASSAY_SETUP: Table 2; average of n = 1 to n = 50; read-out: SMYD2 Biochem IC50
pIC50: −log10 of the molar value.
# reported pIC50; entries follow
QUANTITY_NAME: pIC50

COMPOUND	RELATIONAL_OPERATOR	VAL
C[C@H]1C[C@@H](NC(=O)c2cc(C3CC3)on2)CN1 (racemic)	<	4.30
C[C@H]1CN(Cc2ccccn2)C[C@H]1NC(=O)c1cc(C2CC2)on1 (racemic)	=	4.50
C[C@@H]1CN(Cc2cccnc2)C[C@H]1NC(=O)c1cc(C2CC2)on1 (racemic)	<	4.30
CCN1C[C@@H](C)[C@H](NC(=O)c2cc(C3CC3)on2)C1 (racemic)	=	4.47

----------
# reported log10 of IC50; entries follow
TEST_SYSTEM: SMYD2 (Homo sapiens)
Construct: Full length SMYD2 (NP 064582.2) was cloned; His6 (N, cleaved yes); FLAG (N); made in house; host or cells: Sf9 insect cells
MEASUREMENT_DESCRIPTION: SMYD2 Biochemical Assay (3H-SAM, biotinylated peptide substrate, Flashplate)
ASSAY_SETUP: Table 1; average of n = 1 to n = 50; read-out: SMYD2 Biochem IC50
QUANTITY_NAME: log10 of IC50 (log10 of the value in µM)

COMPOUND	log10 of IC50
CC1CN(C2CC2)CC1NC(=O)c1cc(C2CC2)on1 (centres unmarked) [compound 23]	0.71
C[C@@H]1CN(C2CC2)C[C@H]1NC(=O)c1cc(C2CC2)on1 (racemic) [Cpd. No. 46]	0.44
O=C(NC1CCN(C2CC2)C1)c1cc(C2CC2)on1 (centres unmarked) [compound 36]	1.51
O=C(NC1CNCC1O)c1cc(C2CC2)on1 (centres unmarked) [compound 37]	1.56
C[C@H]1CN(C)C[C@H]1NC(=O)c1cc(C2CC2)on1 (racemic) [compound 44]	0.66
O=C(N[C@H]1CCNC1)c1cc(C2CC2)on1 [compound 3]	1.69

FYI, the data here is from patent US20170253601A1.
